- STUDY TARGET: T1, rhesus serum albumin (rhesus, UniProt Q28522 17-600)
- T1 construct: also called RhSA
- ASSAY PROTOCOL: SPR, single cycle kinetics, pH 7.4
pKd: −log10 of the molar value.

{"BINDER": "R11 sdAb (VHH, also called R11 VHH) VHH: QVKLEESGGGLVQAGGSLRLSCVGPGFLLRSNTMGWYRQAPGKERELVAFIRPSGLTNYNDAVQGRFTISRDNAKNTVYLQMNALKPEDTAVYYCHTRPPFQRDSWGQGTQVTVSS", "pKd": 6.80}
{"BINDER": "M79 sdAb (VHH, also called M79 VHH) VHH: QVKLEESGGGLVQAGGSLKLSCAASGSTFSSSSVGWYRQAPGQQRELVAAITSGGSTNTADSVKGRFTMSRDNAKNTVYLQMRDLKPEDTAVYYCNVAGRNWVPISRYSPGPYWGQGTQVTVSS", "pKd": 7.07}
{"BINDER": "H18 sdAb (VHH, also called H18 VHH) VHH: QVQLVESGGGLVQAGGSLRLSCTASGSIESINRMAWYRQAPGQQREFVARISKGGSTNYPDSVKGRFTISRDNAKNTVYLQMNSLKPEDTAVYYCAAGPVWEQFWGQGTQVTVSS", "pKd": 7.32}
{"BINDER": "R28 sdAb (VHH, also called R28 VHH) VHH: QVQLVESGGGLVQAGGSLRLSCVASGRTFIAYAMGWFRQAPGKEREFVAAITNFAGGTTYYADSVKGRFTISRDNAKTTVYLQMNSLKPEDTALYYCAADRSAQTMRQVRPVLPYWGQGTQVTVSS", "pKd": 7.42}
{"BINDER": "M75 sdAb (VHH, also called M75 VHH) VHH: QVQLVESGGGFVQAGGSLRLSCAASGRTFDNYVMAWFRQAPGKEREFVASISGSGSITNYANSVKDRFTISRDSAKNAIYLQMNSLKPEDTALYYCAAGSRRTYYREPKFYPSWGQGTQVTVSS", "pKd": 8.54}
{"BINDER": "Rh34 sdAb (VHH, also called Rh34 VHH) VHH: QVKLEESGGGLVQAGGSLRLSCAASGRTISLYAVGWFRRAPGKEREFVAAISWTDSSTYYADSVKGRFTISRDNAKNTVYLGMNSLNPEDTAVYYCAADVSIRGLQKYEYDYWGQGTQVTVSS", "pKd": 6.48}
{"BINDER": "Rh46 sdAb (VHH, also called Rh46 VHH) VHH: QVKLEESGGGLVQAGGSLRLSCTASTRTFSSYIMGWFRQAPGKERELVAAISWSGRMTHYADSVKGRFAISRDNAKNTVYLQMNVLKPEDTAIYSCAADRTTAWGAPRSQYDSWGQGTQVTVSS", "pKd": 7.09}

Source listed as patent US20210253679A1.
